assay: Clearance in BALB/c mouse at 4 to 5 mg/kg, iv administered as single bolus dose by HPLC; type: ADME, organism-based; design: dose 4-5 mg/kg, route intravenous; settings: in vivo
measured.endpoint: clearance (mL/min)
Reply with just the number (in mL/min).

smiles.structure	measured.endpoint	units.symbol	data.value
NNC(=O)c1ccncc1	clearance	mL/min	0.0738

# context switch: different compound, same clearance
Name the recorded clearance of the item CO[C@H]1/C=C/O[C@@]2(C)Oc3c(C)c(O)c4c(c3C2=O)C2=NC3(CCN(CC(C)C)CC3)NC2=C(NC(=O)/C(C)=C\C=C\[C@H](C)[C@H](O)[C@@H](C)[C@@H](O)[C@@H](C)[C@H](OC(C)=O)[C@@H]1C)C4=O in your answer.
0.017
